parameter.measured: IC50 (nM)
Hi! Could you send only the number? It should be in nM, unit omitted.

Form field - read-out: IC50; system: Mycobacterium tuberculosis lysine tRNA synthetase (MtKRS) (Mycobacterium tuberculosis); submitted item: `Nc1nc2c(c(-n3cccn3)n1)C(=O)N([C@H]1[C@@H](O)CCCCC1(F)F)C2` 80

Form field - read-out: IC50; system: Mycobacterium tuberculosis lysine tRNA synthetase (MtKRS) (Mycobacterium tuberculosis); submitted item: `CNc1nc(N)nc2c1C(=O)N([C@H]1[C@@H](O)CCCCC1(F)F)C2` 200

Form field - read-out: IC50; system: Mycobacterium tuberculosis lysine tRNA synthetase (MtKRS) (Mycobacterium tuberculosis); submitted item: `CCOc1cnn(-c2nc(N)nc3c2C(=O)N([C@@H]2CCCC[C@@H]2O)C3)c1` 300

Form field - read-out: IC50; system: Mycobacterium tuberculosis lysine tRNA synthetase (MtKRS) (Mycobacterium tuberculosis); submitted item: `CCOc1cnn(-c2nc(N)nc3c2C(=O)N([C@H]2CCCCC2(F)F)C3)c1` 200
